- ASSAY EXPLANATION: Toxicology study of VD in rats: 5-day continuous subcutaneous infusion by Alzet minipumps, plasma VD by radioimmunoassay, clinical observations
- Assay type: in vivo
- RUN PARAMETERS: female, Sprague Dawley, rat, in vivo, sc, 1.8 mg
- Protocol: VD was administered to a rat model via a subcutaneous delivery route to assess the toxicity of VD and to determine if a lethal dosing amount of the VD can be reached by subcutaneous administration. As noted above, a maximum tolerated or lethal dosing amount was not observed for canines. VD-acetate (Bachem lot 2502022) was prepared in the Tris/Glycerin/m-cresol buffer at a concentration of 3 mg/mL or 15 mg/mL. […]
Ends that are not written are not given here.
READOUT LABEL: level at 24 h (ng/mL)
Kindly provide the numeric value in ng/mL only, without the unit symbol.

Inquiry: Form field: reported level at 24 h of EVVPPQVLSEPNEEAGAALSPLPEVPPWTGEVSPAQR [VD, Vessel Dilator]
Reply text: 320

----------
- ASSAY EXPLANATION: Toxicology study of VD in rats: 5-day continuous subcutaneous infusion by Alzet minipumps, plasma VD by radioimmunoassay, clinical observations
- Format: in vivo
- RUN PARAMETERS: female, Sprague Dawley, rat, in vivo, sc, 3.6 mg
Ends that are not written are not given here.
READOUT LABEL: level at 8 h (ng/mL)
# number only, unit ng/mL dropped from output

Inquiry: Could you tell me which level at 8 h is on file for EVVPPQVLSEPNEEAGAALSPLPEVPPWTGEVSPAQR [VD, Vessel Dilator] ?
Reply text: 454

----------
- ASSAY EXPLANATION: Toxicology study of VD in rats: 5-day continuous subcutaneous infusion by Alzet minipumps, plasma VD by radioimmunoassay, clinical observations
- Type: in vivo
- RUN PARAMETERS: Sprague Dawley, rat, in vivo, sc, 3.6 mg; male rats N=3, 3.60 mg, 8 hours post-dosing; read-out: Mean concentration of vessel dilator in plasma
- Method: VD was administered to a rat model via a subcutaneous delivery route to assess the toxicity of VD and to determine if a lethal dosing amount of the VD can be reached by subcutaneous administration. As noted above, a maximum tolerated or lethal dosing amount was not observed for canines. VD-acetate (Bachem lot 2502022) was prepared in the Tris/Glycerin/m-cresol buffer at a concentration of 3 mg/mL or 15 mg/mL. […]
Ends that are not written are not given here.
READOUT LABEL: level at 8 h (ng/mL)
Provide only the numeric value, understood in ng/mL.

Inquiry: Find the recorded level at 8 h belonging to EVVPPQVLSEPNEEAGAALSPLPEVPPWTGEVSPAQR [VD, Vessel Dilator] and report it.
Reply text: 255

----------
- ASSAY EXPLANATION: Toxicology study of VD in rats: 5-day continuous subcutaneous infusion by Alzet minipumps, plasma VD by radioimmunoassay, clinical observations
- Assay type: in vivo
- RUN PARAMETERS: Sprague Dawley, rat, in vivo, sc, 1.8 mg; male rats N=3, 1.80 mg, 24 hours post-dosing; read-out: Mean concentration of vessel dilator in plasma
Ends that are not written are not given here.
READOUT LABEL: level at 24 h (ng/mL)
Hi! Could you send only the number? It should be in ng/mL, unit omitted.

Inquiry: Requested read-out: level at 24 h. Entry: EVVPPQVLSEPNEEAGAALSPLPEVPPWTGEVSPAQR [VD, Vessel Dilator]
Reply text: 167

----------
- ASSAY EXPLANATION: Toxicology study of VD in canines: 5-day continuous subcutaneous infusion, plasma VD by radioimmunoassay, clinical observations
- Format: in vivo
- RUN PARAMETERS: female, beagle, dog, in vivo, sc, t1/2
Ends that are not written are not given here.
READOUT LABEL: half-life

Inquiry: // query half-life value for entry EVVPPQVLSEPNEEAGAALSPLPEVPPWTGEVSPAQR [VD, Vessel Dilator]
Reply text: 48.1 min

----------
- ASSAY EXPLANATION: Toxicology study of VD in canines: 5-day continuous subcutaneous infusion, plasma VD by radioimmunoassay, clinical observations
- Type: in vivo
- RUN PARAMETERS: beagle, dog, in vivo; female canine, 2.88 mg/kg/day (14.4 mg/kg), SC infusion 5 days, data through 122 hours
Ends that are not written are not given here.
READOUT LABEL: AUC(0-t) (ng·h/mL)
Number only, in ng·h/mL; omit the unit.

Inquiry: Which AUC(0-t) is reported for this sequence? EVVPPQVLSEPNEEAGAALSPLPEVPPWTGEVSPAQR [VD, Vessel Dilator]
Reply text: 64100

----------
- ASSAY EXPLANATION: Toxicology study of VD in canines: 5-day continuous subcutaneous infusion, plasma VD by radioimmunoassay, clinical observations
- Format: in vivo
- RUN PARAMETERS: beagle, dog, in vivo; female canine, 1.44 mg/kg/day (7.20 mg/kg), SC infusion 5 days, data through 122 hours
- Method: VD was administered to canines via a subcutaneous delivery route. The dosing was performed at a high level to assess the toxicity of VD and to determine if a lethal dosing amount of the VD can be reached by subcutaneous administration. […] All animals were observed twice daily during the first and second 5-day periods for mortality and moribund appearance. […] Body weights and body weight changes were calculated for the corresponding intervals. […]
Ends that are not written are not given here.
READOUT LABEL: AUC(0-t) (ng·h/mL)
// note: answer is a bare numeric in ng·h/mL

Inquiry: Given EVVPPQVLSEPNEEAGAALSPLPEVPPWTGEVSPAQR [VD, Vessel Dilator] , state its recorded AUC(0-t).
Reply text: 34700

----------
- ASSAY EXPLANATION: Toxicology study of VD in rats: 5-day continuous subcutaneous infusion by Alzet minipumps, plasma VD by radioimmunoassay, clinical observations
- Format: in vivo
- RUN PARAMETERS: female, Sprague Dawley, rat, in vivo, sc, 0.18 mg
Ends that are not written are not given here.
READOUT LABEL: level at 4 h (ng/mL)
# output: bare number, implied unit ng/mL

Inquiry: Need level at 4 h of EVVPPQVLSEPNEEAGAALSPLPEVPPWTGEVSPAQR [VD, Vessel Dilator] , thanks.
Reply text: 27.5

----------
- ASSAY EXPLANATION: Toxicology study of VD in canines: 5-day continuous subcutaneous infusion, plasma VD by radioimmunoassay, clinical observations
- Format: in vivo
- RUN PARAMETERS: beagle, dog, in vivo; male canine, 1.44 mg/kg/day (7.20 mg/kg), SC infusion 5 days, τ 120 hours; read-out: AUCτ (AUGτ [sic])
- Protocol: VD was administered to canines via a subcutaneous delivery route. The dosing was performed at a high level to assess the toxicity of VD and to determine if a lethal dosing amount of the VD can be reached by subcutaneous administration. […] All animals were observed twice daily during the first and second 5-day periods for mortality and moribund appearance. […] Body weights and body weight changes were calculated for the corresponding intervals. […]
Ends that are not written are not given here.
READOUT LABEL: AUC (ng·h/mL)
Value expressed in ng·h/mL; do not type the unit.

Inquiry: So what's the measured AUC for this one? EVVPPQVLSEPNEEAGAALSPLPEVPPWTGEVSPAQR [VD, Vessel Dilator]
Reply text: 30800

----------
- ASSAY EXPLANATION: Toxicology study of VD in canines: 5-day continuous subcutaneous infusion, plasma VD by radioimmunoassay, clinical observations
- Format: in vivo
- RUN PARAMETERS: both sexes, beagle, dog, in vivo, calculated half-life for elimination of Vessel Dilator in plasma
Ends that are not written are not given here.
READOUT LABEL: half-life

Inquiry: Item under review: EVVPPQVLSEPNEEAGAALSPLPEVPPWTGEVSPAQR [VD, Vessel Dilator] . Reported half-life?
Reply text: 42 to 72 min

----------
- ASSAY EXPLANATION: Toxicology study of VD in canines: 5-day continuous subcutaneous infusion, plasma VD by radioimmunoassay, clinical observations
- Type: in vivo
- RUN PARAMETERS: male, beagle, dog, in vivo
Ends that are not written are not given here.
READOUT LABEL: Tmax (h)
Please state the figure in h; there is no need to write the unit.

Inquiry: Would you kindly share the measured Tmax for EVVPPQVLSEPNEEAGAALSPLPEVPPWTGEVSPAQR [VD, Vessel Dilator] ?
Reply text: 120

----------
- ASSAY EXPLANATION: Toxicology study of VD in canines: 5-day continuous subcutaneous infusion, plasma VD by radioimmunoassay, clinical observations
- Format: in vivo
- RUN PARAMETERS: beagle, dog, in vivo; female canine, 2.88 mg/kg/day (14.4 mg/kg), SC infusion 5 days, τ 120 hours; read-out: AUCτ (AUGτ [sic])
Ends that are not written are not given here.
READOUT LABEL: AUC (ng·h/mL)
Only the number, expressed in ng·h/mL, is required.

Inquiry: I would be grateful if you could share the reported AUC for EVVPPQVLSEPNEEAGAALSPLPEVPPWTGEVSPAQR [VD, Vessel Dilator] .
Reply text: 63300

----------
- ASSAY EXPLANATION: Toxicology study of VD in canines: 5-day continuous subcutaneous infusion, plasma VD by radioimmunoassay, clinical observations
- Format: in vivo
- RUN PARAMETERS: both sexes, beagle, dog, in vivo, sc
Ends that are not written are not given here.
READOUT LABEL: Tmax (h)
Numeric answer only, unit h assumed.

Inquiry: # lookup: Tmax of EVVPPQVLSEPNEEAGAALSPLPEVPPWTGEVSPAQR [VD, Vessel Dilator]
Reply text: 108
